Biological target: human NOX4 (Homo sapiens)
Construct: The full-length human NOX4 (NM_016931.3) transcript was cloned
Sequence (Q9NPH5 whole entry): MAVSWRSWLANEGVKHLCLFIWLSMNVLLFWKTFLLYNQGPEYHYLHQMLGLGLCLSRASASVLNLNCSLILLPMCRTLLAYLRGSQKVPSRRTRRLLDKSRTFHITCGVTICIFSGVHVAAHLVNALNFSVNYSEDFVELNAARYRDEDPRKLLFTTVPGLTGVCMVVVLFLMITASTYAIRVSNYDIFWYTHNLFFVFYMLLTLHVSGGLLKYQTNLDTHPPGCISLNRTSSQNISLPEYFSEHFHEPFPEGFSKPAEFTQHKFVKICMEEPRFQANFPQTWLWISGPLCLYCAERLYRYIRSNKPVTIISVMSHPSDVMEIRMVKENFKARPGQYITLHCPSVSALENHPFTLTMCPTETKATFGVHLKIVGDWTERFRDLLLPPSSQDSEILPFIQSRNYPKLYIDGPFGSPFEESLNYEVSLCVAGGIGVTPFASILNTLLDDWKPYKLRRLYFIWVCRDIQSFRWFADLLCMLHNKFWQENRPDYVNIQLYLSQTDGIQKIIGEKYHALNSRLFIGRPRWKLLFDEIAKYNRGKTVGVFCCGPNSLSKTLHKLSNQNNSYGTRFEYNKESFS
Sequence (P13498 whole entry partner): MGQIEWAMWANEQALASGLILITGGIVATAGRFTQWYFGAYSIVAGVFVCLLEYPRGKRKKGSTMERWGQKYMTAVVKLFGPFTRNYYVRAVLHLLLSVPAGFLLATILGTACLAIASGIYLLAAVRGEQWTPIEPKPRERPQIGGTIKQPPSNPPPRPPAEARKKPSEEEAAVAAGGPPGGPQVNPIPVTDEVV
Assay: Amplex Red activity assay (cellular H2O2 formation in hNOX4 T-REx-293 cells)
Details: tet-induced 24 h, extracellular H2O2 by Amplex Red, 60 min 25° C., geometric mean if determined several times
reported.metric: pIC50
Numbers only, as −log10 of the molar value.

Before answering, review these 3 worked examples.
O=C(Nc1ccc2sc(N3CCCC4(COC4)C3)nc2c1)c1ccc2c(c1)CCO2	5.63
CCN(CC)c1nc2cc(C(=O)Nc3ccc4c(c3)CCO4)ccc2o1	6.38
O=C(Nc1ccc2c(c1)OCCO2)c1ccc2sc(N3CCCCC3)nc2c1	4.89

Give pIC50 for each of the items listed below.
1. CN1CCOc2ccc(C(=O)Nc3ccc4oc(N5CCC56COC6)nc4c3)cc21
2. O=C(Nc1ccc2oc(N3CCC34COC4)nc2c1)c1ccc2c(c1)CCO2

[5.75, 6.39]
